These entries and their values trace back to ChEMBL document CHEMBL2150982.

assaySystem: D-amino-acid oxidase (Sus scrofa, UniProt P00371)
Sequence (P00371 whole entry): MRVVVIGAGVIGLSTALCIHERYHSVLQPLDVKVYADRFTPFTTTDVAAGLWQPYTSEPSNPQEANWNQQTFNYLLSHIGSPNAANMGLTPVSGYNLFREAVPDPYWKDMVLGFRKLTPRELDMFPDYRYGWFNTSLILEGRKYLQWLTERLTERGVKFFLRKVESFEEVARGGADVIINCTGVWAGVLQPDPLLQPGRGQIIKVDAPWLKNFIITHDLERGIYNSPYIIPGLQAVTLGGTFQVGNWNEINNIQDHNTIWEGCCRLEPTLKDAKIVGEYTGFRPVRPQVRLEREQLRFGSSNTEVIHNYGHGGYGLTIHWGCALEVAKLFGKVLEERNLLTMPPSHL
pIC50: −log10 of the molar value.
Consider the following compounds and their measured pIC50 readings.

[
  {
    "compound": "COc1cccc2c1[nH]c(=O)n2O",
    "inequalityOperator": "=",
    "pIC50": 6.40
  },
  {
    "compound": "Cc1c(F)ccc2[nH]c(=O)n(O)c12",
    "inequalityOperator": "<",
    "pIC50": 4.00
  },
  {
    "compound": "CCc1cccc2c1[nH]c(=O)n2O",
    "inequalityOperator": "=",
    "pIC50": 4.70
  },
  {
    "compound": "CCC(C)c1cccc2c1[nH]c(=O)n2O (stereo unspecified)",
    "inequalityOperator": "=",
    "pIC50": 4.40
  },
  {
    "compound": "O=c1[nH]c2c3c(ccc2n1O)CCO3",
    "inequalityOperator": "=",
    "pIC50": 6.70
  },
  {
    "compound": "O=c1[nH]c2ccccc2n1O",
    "inequalityOperator": "=",
    "pIC50": 6.00
  },
  {
    "compound": "O=c1[nH]c2cc(F)ccc2n1O",
    "inequalityOperator": "=",
    "pIC50": 6.00
  },
  {
    "compound": "O=c1[nH]c2ccc(F)cc2n1O",
    "inequalityOperator": "=",
    "pIC50": 6.22
  },
  {
    "compound": "O=c1[nH]c2cc(F)c(F)cc2n1O",
    "inequalityOperator": "=",
    "pIC50": 4.52
  },
  {
    "compound": "O=c1[nH]c2c(F)cccc2n1O",
    "inequalityOperator": "=",
    "pIC50": 6.30
  },
  {
    "compound": "O=c1[nH]c2ccc3c(c2n1O)CCC3",
    "inequalityOperator": "<",
    "pIC50": 4.00
  }
]

====

assaySystem: D-amino-acid oxidase (Homo sapiens, UniProt P14920)
Sequence (P14920 whole entry): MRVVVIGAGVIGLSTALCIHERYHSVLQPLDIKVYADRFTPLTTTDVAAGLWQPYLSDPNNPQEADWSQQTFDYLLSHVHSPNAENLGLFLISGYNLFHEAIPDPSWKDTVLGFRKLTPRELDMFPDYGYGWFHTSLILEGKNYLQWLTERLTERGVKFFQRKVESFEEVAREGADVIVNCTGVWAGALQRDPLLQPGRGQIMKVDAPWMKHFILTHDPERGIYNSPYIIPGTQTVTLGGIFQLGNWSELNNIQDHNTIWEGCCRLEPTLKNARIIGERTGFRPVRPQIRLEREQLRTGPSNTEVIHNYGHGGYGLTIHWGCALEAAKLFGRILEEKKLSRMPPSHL
protocolDescription: Inhibition of human recombinant DAAO expressed in HEK293 cells using D-serine as substrate after 20 mins by horseradish peroxidase-coupled assay

[
  {
    "molecule": "O=c1[nH]c2cc(F)ccc2n1O",
    "inequalityOperator": "=",
    "IC50 (µM)": 0.9
  },
  {
    "molecule": "O=c1[nH]c2cccnc2n1O",
    "inequalityOperator": "=",
    "IC50 (µM)": 30
  },
  {
    "molecule": "O=c1[nH]c2c(F)cc(F)cc2n1O",
    "inequalityOperator": "=",
    "IC50 (µM)": 0.08
  },
  {
    "molecule": "Cn1c(=O)n(O)c2ccccc21",
    "inequalityOperator": ">",
    "IC50 (µM)": 100
  },
  {
    "molecule": "O=c1[nH]c2ccc3c(c2n1O)CCC3",
    "inequalityOperator": ">",
    "IC50 (µM)": 100
  },
  {
    "molecule": "O=c1[nH]c2c(F)cccc2n1O",
    "inequalityOperator": "=",
    "IC50 (µM)": 0.1
  },
  {
    "molecule": "Cc1cc2[nH]c(=O)n(O)c2cc1F",
    "inequalityOperator": "=",
    "IC50 (µM)": 2
  },
  {
    "molecule": "COc1cccc2c1[nH]c(=O)n2O",
    "inequalityOperator": "=",
    "IC50 (µM)": 0.1
  },
  {
    "molecule": "O=c1[nH]c2cc(F)c(F)cc2n1O",
    "inequalityOperator": "=",
    "IC50 (µM)": 70
  },
  {
    "molecule": "O=c1[nH]c2ccncc2n1O",
    "inequalityOperator": "=",
    "IC50 (µM)": 70
  },
  {
    "molecule": "Cc1cc(C)c2[nH]c(=O)n(O)c2c1",
    "inequalityOperator": "=",
    "IC50 (µM)": 20
  },
  {
    "molecule": "CC(C)c1cccc2c1[nH]c(=O)n2O",
    "inequalityOperator": "=",
    "IC50 (µM)": 20
  },
  {
    "molecule": "O=c1[nH]c2c3c(ccc2n1O)CCO3",
    "inequalityOperator": "=",
    "IC50 (µM)": 0.8
  },
  {
    "molecule": "COn1c(=O)[nH]c2ccccc21",
    "inequalityOperator": ">",
    "IC50 (µM)": 100
  },
  {
    "molecule": "O=c1[nH]c2c(Cc3ccccc3)cccc2n1O",
    "inequalityOperator": "=",
    "IC50 (µM)": 10
  },
  {
    "molecule": "Oc1nc2ccccc2[nH]1",
    "inequalityOperator": ">",
    "IC50 (µM)": 100
  },
  {
    "molecule": "Cc1ccc2c(c1)[nH]c(=O)n2O",
    "inequalityOperator": "=",
    "IC50 (µM)": 4
  },
  {
    "molecule": "O=c1[nH]c2cccc(F)c2n1O",
    "inequalityOperator": "=",
    "IC50 (µM)": 3
  },
  {
    "molecule": "O=c1[nH]c2ccccc2n1O",
    "inequalityOperator": "=",
    "IC50 (µM)": 0.6
  },
  {
    "molecule": "O=c1[nH]c2ccc(Cl)cc2n1O",
    "inequalityOperator": "=",
    "IC50 (µM)": 9
  },
  {
    "molecule": "CCC(C)c1cccc2c1[nH]c(=O)n2O (configuration not stated)",
    "inequalityOperator": ">",
    "IC50 (µM)": 100
  },
  {
    "molecule": "Cc1c(F)ccc2[nH]c(=O)n(O)c12",
    "inequalityOperator": ">",
    "IC50 (µM)": 100
  },
  {
    "molecule": "O=C1Cc2ccccc2N1O",
    "inequalityOperator": ">",
    "IC50 (µM)": 100
  },
  {
    "molecule": "Cc1c(F)ccc2c1[nH]c(=O)n2O",
    "inequalityOperator": "=",
    "IC50 (µM)": 0.07
  },
  {
    "molecule": "O=c1[nH]c2ccc(F)cc2n1O",
    "inequalityOperator": "=",
    "IC50 (µM)": 0.4
  },
  {
    "molecule": "O=C1Nc2ccccc2C1O (configuration not stated)",
    "inequalityOperator": ">",
    "IC50 (µM)": 100
  },
  {
    "molecule": "CCOc1cccc2c1[nH]c(=O)n2O",
    "inequalityOperator": "=",
    "IC50 (µM)": 50
  },
  {
    "molecule": "O=c1[nH]c2ccc(F)c(F)c2n1O",
    "inequalityOperator": "=",
    "IC50 (µM)": 8
  },
  {
    "molecule": "Cc1ccc2[nH]c(=O)n(O)c2c1",
    "inequalityOperator": "=",
    "IC50 (µM)": 30
  },
  {
    "molecule": "Cc1cccc2[nH]c(=O)n(O)c12",
    "inequalityOperator": "=",
    "IC50 (µM)": 40
  },
  {
    "molecule": "CCc1cccc2c1[nH]c(=O)n2O",
    "inequalityOperator": "=",
    "IC50 (µM)": 80
  },
  {
    "molecule": "Nn1c(=O)[nH]c2ccccc21",
    "inequalityOperator": ">",
    "IC50 (µM)": 100
  },
  {
    "molecule": "CCCc1cccc2c1[nH]c(=O)n2O",
    "inequalityOperator": "=",
    "IC50 (µM)": 20
  },
  {
    "molecule": "Cc1ccc2c([nH]c(=O)n2O)c1C",
    "inequalityOperator": "=",
    "IC50 (µM)": 20
  },
  {
    "molecule": "O=c1[nH]c2ncccc2n1O",
    "inequalityOperator": "=",
    "IC50 (µM)": 1
  },
  {
    "molecule": "O=c1[nH]c2cc3c(cc2n1O)CCC3",
    "inequalityOperator": "=",
    "IC50 (µM)": 30
  },
  {
    "molecule": "Cc1cccc2c1[nH]c(=O)n2O",
    "inequalityOperator": "=",
    "IC50 (µM)": 0.2
  }
]

====

protocolDescription: Metabolic stability in mouse liver microsomes assessed as compound remaining at 5 uM after 1 hr by LC/MS/MS analysis
Format: ADME, Microsome
details: read-out: Stability

[
  {
    "smilesRepresentation": "COc1cccc2c1[nH]c(=O)n2O",
    "valueUnits": "%",
    "remaining at 1 h, 5 µM": 100
  },
  {
    "smilesRepresentation": "O=c1[nH]c2c(F)cc(F)cc2n1O",
    "valueUnits": "%",
    "remaining at 1 h, 5 µM": 100
  }
]
